# targetEntity: human MT2 receptor (Homo sapiens, UniProt P49286)
# Construct: melatonin MT1 and MT2 receptors cDNA were individually subcloned into pcDNA3 and introduced into NIH-3T3 cells using Lipofectamine; expressed in transfected cells
# Sequence (P49286 whole entry): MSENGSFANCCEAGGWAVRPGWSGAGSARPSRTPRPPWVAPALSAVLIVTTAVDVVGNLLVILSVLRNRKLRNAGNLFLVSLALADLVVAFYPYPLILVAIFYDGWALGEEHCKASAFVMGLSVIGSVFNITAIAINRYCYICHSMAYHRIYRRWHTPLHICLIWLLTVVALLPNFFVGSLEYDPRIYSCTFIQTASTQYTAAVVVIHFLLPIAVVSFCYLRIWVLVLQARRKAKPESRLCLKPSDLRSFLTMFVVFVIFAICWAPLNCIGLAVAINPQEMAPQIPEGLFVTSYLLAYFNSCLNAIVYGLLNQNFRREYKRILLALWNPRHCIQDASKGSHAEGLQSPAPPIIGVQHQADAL
# protocol: Melatonin receptor binding assay (MT2), 2-[125I]-iodomelatonin
# experimentalContext: membrane homogenates of NIH-3T3 cells expressing MT2; 2-[125I]-iodomelatonin 0.2 nM; 37° C., 1 hour; read-out: MT2 IC50
pIC50: −log10 of the molar value.
For each entry below, report its pIC50 value.

Lookup result for COc1cc2c(cc1OC)C(CC(c1ccccc1)c1ccccc1)N(C(=O)C1CCCCC1)CC2 (centres unmarked) [Example 44] ; measured pIC50: > 7.00

Measured pIC50, COc1cc2c(cc1OC)C(CC(c1ccccc1)c1ccccc1)N(C(=O)c1ccc(C(F)(F)F)cc1)CC2 (centres unmarked) [Example 54] : 6.00 to 7.00

// field: pIC50; key: O=C(C1CC1)N1CCc2cc3c(cc2C1CCc1ccc(F)cc1)OCO3 (centres unmarked) [Example 95] ; value = > 7.00

The reported pIC50 of the molecule CNC(=O)N1CCc2cc(OC)c(OC)cc2C1CC(c1ccccc1)c1ccccc1 (centres unmarked) [Example 9] was > 7.00

Query O=C(C=Cc1ccccc1)N1CCc2cc3c(cc2C1CCc1ccc(F)cc1)OCO3 (centres unmarked) [Example 108] yields pIC50 of 6.00 to 7.00

Form: molecule = CC(C)(C)CC(=O)N1CCc2cc3c(cc2C1CCc1ccc(F)cc1)OCO3 (centres unmarked) [Example 107] ; pIC50 = 6.00 to 7.00

// pIC50 lookup, molecule = COCC(=O)N1CCc2cc3c(cc2C1CCc1ccc(F)cc1)OCO3 (centres unmarked) [Example 96] , result: > 7.00

For COc1cc2c(cc1OC)C(CCc1ccccc1)N(C(=O)C(C)C)CC2 (centres unmarked) [Example 59] the molecule record lists pIC50 as 6.00 to 7.00
